# SYSTEM: catalytic domain of human Bub1 (amino acids 704-1085) (Homo sapiens, UniProt O43683)
# Construct: catalytic domain of human Bub1 (amino acids 704-1085); His6 (N); made in house; host or cells: Hi5 insect cells
# Sequence (O43683 704-1085): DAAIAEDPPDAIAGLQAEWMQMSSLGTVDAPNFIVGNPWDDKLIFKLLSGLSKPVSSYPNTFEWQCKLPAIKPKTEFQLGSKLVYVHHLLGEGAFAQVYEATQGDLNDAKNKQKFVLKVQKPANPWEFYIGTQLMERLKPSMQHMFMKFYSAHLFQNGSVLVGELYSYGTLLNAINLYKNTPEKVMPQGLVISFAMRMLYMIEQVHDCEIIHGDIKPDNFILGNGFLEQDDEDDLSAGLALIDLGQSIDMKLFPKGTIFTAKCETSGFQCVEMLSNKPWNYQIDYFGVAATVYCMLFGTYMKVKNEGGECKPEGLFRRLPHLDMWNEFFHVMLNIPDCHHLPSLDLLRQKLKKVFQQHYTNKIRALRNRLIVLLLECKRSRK
# EXPERIMENTAL_DETAILS: Bub1 kinase assay (TR-FRET)
# Type: biochemical
# CONDITION_DETAILS: Biological Assay 1: Bub1 kinase assay median IC50, 10 μM ATP
# Experimental: To this end, 100-fold concentrated compound solutions (in DMSO) were previously prepared by serial dilution (1:3.4) of 2 mM stocks in a clear low volume 384-well source microtiter plate (Greiner Bio-One, Frickenhausen, Germany), from which 50 nL of compounds were transferred into a black low volume test microtiter plate from the same supplier. […]
// NB: equality with 30 nM counts as 0.0; only IC50 strictly below is 1.0

>>> print(df.to_string())
                           structure_smiles                                    system  category
0  Cc1cc(Nc2ccnc(C)n2)nc(-c2nn(Cc3c(F)cc(OCCO)cc3F)c3ccccc23)n1  catalytic domain of human Bub1 (amino acids 704-1085) (Homo sapiens, UniProt O43683)       0.0
1  COCCOc1cc(F)c(Cn2nc(-c3ncc(C4CCN(CC(F)(F)F)CC4)c(Nc4ccncc4Cl)n3)c3ccccc32)c(F)c1  catalytic domain of human Bub1 (amino acids 704-1085) (Homo sapiens, UniProt O43683)       0.0
2  CCOc1cc(F)c(Cn2nc(-c3ncc(CCCN4CCOCC4)c(Nc4ccncc4)n3)c3ccccc32)c(F)c1  catalytic domain of human Bub1 (amino acids 704-1085) (Homo sapiens, UniProt O43683)       1.0
3  COCCOc1cc(F)c(Cn2nc(-c3nc4c(c(Nc5ccncn5)n3)CN(CC(F)(F)F)C4)c3ccccc32)c(F)c1  catalytic domain of human Bub1 (amino acids 704-1085) (Homo sapiens, UniProt O43683)       1.0
4  CCOc1cc(F)c(Cn2nc(-c3nc4c(c(Nc5ccnc(NC(C)=O)c5)n3)CC(C)(C)C4)c3ccccc32)c(F)c1  catalytic domain of human Bub1 (amino acids 704-1085) (Homo sapiens, UniProt O43683)       1.0
5  COCCOc1cc(F)c(Cn2nc(-c3nc4c(c(Nc5ccncc5OC)n3)CCC(C)(C)C4)c3ccccc32)c(F)c1  catalytic domain of human Bub1 (amino acids 704-1085) (Homo sapiens, UniProt O43683)       0.0
6  CCOc1cc(F)c(Cn2nc(-c3nc4c(c(Nc5ccnc(C)c5)n3)COC4)c3ccccc32)c(F)c1  catalytic domain of human Bub1 (amino acids 704-1085) (Homo sapiens, UniProt O43683)       0.0
